# EXPERIMENT NOTES: gradient 5% acetonitrile 3 min, to 50% in 2 min, to 85% in 15 min, held 3 min, 100 µL/min
# CONDITION: column: Zorbax Extend-C18 2.1 x 50 mm; eluents: water / acetonitrile, 0.1% formic acid
So basically: is RP-LC retention time under 700 s? Then fulfilled. Not under? Then not fulfilled.

Request: A record lists CCNC(=O)C1CCCN(c2nc3ncn(CC(=O)NCc4ccccc4)c(=O)c3s2)C1 (stereo unspecified) . Is its RP-LC retention time below 700 s?
Result: fulfilled

Request: A record lists O=C(CN1C(=O)C2CCCCN2c2ccc(C(=O)N3CCCC3)cc21)NC1CCCCC1 (stereo unspecified) . Is its RP-LC retention time below 700 s?
Result: not fulfilled

Request: A record lists `Cc1cccc(CN2CCCn3nc(C(=O)NC4CC4)cc3C2=O)c1` . Is its RP-LC retention time below 700 s?
Result: not fulfilled

Request: A record lists `COC(=O)c1sccc1S(=O)(=O)N1CCN(c2ccccn2)CC1` . Is its RP-LC retention time below 700 s?
Result: fulfilled

Request: A record lists `COc1ccc(NC(=O)N2C[C@@H]3C[C@H]2C[C@@H]3NS(=O)(=O)c2ccccc2)cc1F` . Is its RP-LC retention time below 700 s?
Result: not fulfilled

Request: A record lists `CSc1cccc(NC(=O)N2CCC(C)(C(=O)NCc3ccccc3)CC2)c1` . Is its RP-LC retention time below 700 s?
Result: not fulfilled

Request: A record lists `COc1ccc(OC)c(CNC(=O)Cn2cc(-c3nnco3)c3ccccc32)c1` . Is its RP-LC retention time below 700 s?
Result: not fulfilled

Request: A record lists `COc1ccc(CC(=O)NCc2ccc3c(c2)ncn3C(C)C)cc1` . Is its RP-LC retention time below 700 s?
Result: fulfilled

Request: A record lists `CC(C)n1cnnc1CC1CN(C(=O)Nc2cc(F)ccc2F)C1` . Is its RP-LC retention time below 700 s?
Result: fulfilled

Request: A record lists CCCN1C(=O)C(NC(=O)CCc2ccccc2)(C(F)(F)F)C(C(=O)OC)=C1C (stereo unspecified) . Is its RP-LC retention time below 700 s?
Result: not fulfilled

Request: A record lists `COc1ccc(CC(=O)N2CCC3(CC2)NC(=O)c2cc(C)ccc2N3C)cc1` . Is its RP-LC retention time below 700 s?
Result: not fulfilled

Request: A record lists `COc1nn(C)cc1-c1nnc(SCC(=O)NCc2ccc(F)cc2)n1C` . Is its RP-LC retention time below 700 s?
Result: fulfilled

Request: A record lists `COc1cccc(CCC(=O)Nc2cc(-c3cccnc3)no2)c1` . Is its RP-LC retention time below 700 s?
Result: not fulfilled

Request: A record lists `CCSc1ccccc1C(=O)NCC1(CO)CC1` . Is its RP-LC retention time below 700 s?
Result: fulfilled

Request: A record lists `CC(C)C(=O)Nc1ccc2c(c1)Sc1ncccc1C(=O)N2C(C)C` . Is its RP-LC retention time below 700 s?
Result: not fulfilled
